Can you tell me growth inhibition for the items I'm about to list?
- PROCEDURE SUMMARY: OD615 S. cerevisiae growth inhibition, permissive medium, pilot counter-assay, permissive growth control for S. cerevisiae lifespan shortening project (AID 705)
- STATED CONDITIONS: OD615, 24 h, at 10 µM, stronger effect = higher value
Write down the numeric answer in % and omit the unit.

Report growth inhibition, nothing else, for this compound: CCCOc1ccc(C2c3c(oc4cc(C)c(C)cc4c3=O)C(=O)N2CCCN2CCOCC2)cc1 (stereo unspecified)
8

Report growth inhibition, nothing else, for this compound: Cc1cccc(NC(=O)CC2SC(=NC3CCCCC3)NC2=O)c1 (stereo unspecified)
-5.5

Report growth inhibition, nothing else, for this compound: O=C(Nc1nccs1)c1cc(S(=O)(=O)N2CCOCC2)ccc1Cl
-0.79

Report growth inhibition, nothing else, for this compound: C=CCn1c(=O)/c(=C/c2cc(OC)c(OC)c(OC)c2)s/c1=C(/C#N)c1nc2ccccc2n1C
-4.25

Report growth inhibition, nothing else, for this compound: Cc1ccc(C2CC(c3cccc(Br)c3)n3nc(N)nc3N2)cc1 (stereo unspecified)
0.285

Report growth inhibition, nothing else, for this compound: Cc1ccc(C)c(N2CCN(C(=O)c3cc4ccccc4oc3=O)CC2)c1
-11.6

Report growth inhibition, nothing else, for this compound: O=C(Nc1ccc(Br)cc1F)C1CCN(c2nnc(-n3cccc3)s2)CC1
2.32

Report growth inhibition, nothing else, for this compound: CCOc1ccc2nc(N3CCCC(C(=O)N4CCN(CC)CC4)C3)sc2c1 (stereo unspecified)
-4.44

Report growth inhibition, nothing else, for this compound: CCC(Sc1nc(=O)cc(N)n1CCc1ccccc1)C(=O)Nc1cc(C)on1 (stereo unspecified)
-3.68

Report growth inhibition, nothing else, for this compound: Clc1ccc(NCn2cncn2)nc1
12.6

Report growth inhibition, nothing else, for this compound: Cc1cccc(CSc2nnc(-c3ccccn3)n2N)c1
-6.39

Report growth inhibition, nothing else, for this compound: COc1cc(SC)ccc1C(=O)Nc1ccc2c(c1)OCCO2
-7.61

Report growth inhibition, nothing else, for this compound: Cc1ccc(/C=N/c2sc3c(c2C#N)CCC3)s1
-1.95

Report growth inhibition, nothing else, for this compound: O=C(Cn1c2c(c(-c3ccccc3)cc1=O)CCCC2)N1CCCCCC1
-10.5

Report growth inhibition, nothing else, for this compound: Cc1onc(-c2ccccc2Cl)c1C(=O)N(C)C1CCCCC1
-18.5

Report growth inhibition, nothing else, for this compound: O=C(OCn1nnc2ccccc2c1=O)c1cccs1
-7.72

Report growth inhibition, nothing else, for this compound: N#Cc1c2n(c3c(-c4ccccc4)ncnc13)CCC2
-12.9

Report growth inhibition, nothing else, for this compound: Cc1ccc(CC2CC(=O)N(c3cc(C)on3)C2=O)cc1 (stereo unspecified)
-17.8

Report growth inhibition, nothing else, for this compound: NC(=O)C1CCN(C(=O)c2ccc(CS(=O)(=O)c3c(Cl)cccc3Cl)o2)CC1
-1.46

Report growth inhibition, nothing else, for this compound: Cn1nnnc1SCC(=O)Nc1ccc(N2CCOCC2)cc1
-4.58

Report growth inhibition, nothing else, for this compound: COc1cc(C(=O)Oc2ccccc2N)cc(OC)c1OC
-19.6

Report growth inhibition, nothing else, for this compound: Cc1cccc(C2Nc3ccccc3C(=O)N2c2ccccc2)n1 (stereo unspecified)
-13.9

Report growth inhibition, nothing else, for this compound: CCOC(=O)c1ccc(Nc2nnc(C(C)(C)C)c(=O)[nH]2)cc1
-18.6

Report growth inhibition, nothing else, for this compound: CCc1ccccc1NC(=O)c1cc2sccc2n1C
-8.19

Report growth inhibition, nothing else, for this compound: c1ccc(N(c2ccccc2)c2nc(N3CCOCC3)nc(N3CCOCC3)n2)cc1
4.5

Report growth inhibition, nothing else, for this compound: O=C(CCc1nc2ccccc2[nH]1)N1CCc2ccccc2C1
-11.6

Report growth inhibition, nothing else, for this compound: C=CCOC(=O)C1=C(C)NC(=O)NC1c1ccc(OC(=O)c2ccco2)c(OC)c1 (stereo unspecified)
-6.37

Report growth inhibition, nothing else, for this compound: CCOC(=O)C1C(=O)NC(SC)=C(C#N)C1c1ccccc1F (stereo unspecified)
-2.39

Report growth inhibition, nothing else, for this compound: Cc1cc(C)c(S(=O)(=O)N2CCN(C)CC2)c(C)c1
-9.57

Report growth inhibition, nothing else, for this compound: O=C(NC1CCN(C(=O)N2c3ccccc3Sc3ccccc32)CC1)c1ccco1
-3.83

Report growth inhibition, nothing else, for this compound: CCN(CC)c1ccc(NC(=O)C2CC3CCC2C3)cc1 (stereo unspecified)
-9.15

Report growth inhibition, nothing else, for this compound: Cc1ccc(-c2nc(NC(=O)CSc3nnc4scc(-c5ccccc5)n34)ns2)cc1
0.135

Report growth inhibition, nothing else, for this compound: CCOc1ccccc1NC(=O)CSc1nnc(-c2ccco2)n1Cc1ccco1
3.23

Report growth inhibition, nothing else, for this compound: CCCc1ccc2c(N)c(C#N)sc2n1
-9.88

Report growth inhibition, nothing else, for this compound: CC(=O)Nc1cc2ccc(OC(C)=O)cc2oc1=O
-15.3

Report growth inhibition, nothing else, for this compound: Cc1nnc(NC(=O)CSc2nnc(Cc3cccn3C)n2C)s1
-3.1

Report growth inhibition, nothing else, for this compound: CC1CCCCN1C(=O)c1ccccc1NC(=O)c1ccco1 (stereo unspecified)
-17.6

Report growth inhibition, nothing else, for this compound: CCOc1ccc(OCC)c(NC(=O)CN2CCC(NC(=O)c3cccc(F)c3)CC2)c1
-3.75

Report growth inhibition, nothing else, for this compound: C=CCn1c(-c2ccco2)n[nH]c1=S
2.98

Report growth inhibition, nothing else, for this compound: COc1cc2[nH]c(=O)n(CCCCCC(=O)NCCCN3CCOCC3)c(=O)c2cc1OC
-9.12

Report growth inhibition, nothing else, for this compound: Cn1c(=O)c2c(SCc3cccnc3)nc(CC(C)(C)C)nc2n(C)c1=O
0.2

Report growth inhibition, nothing else, for this compound: COCCN1C(=O)c2oc3ccccc3c(=O)c2C1c1cccc(O)c1 (stereo unspecified)
-7

Report growth inhibition, nothing else, for this compound: Cc1ccc(NC(=O)c2ccco2)cc1C
4.04

Report growth inhibition, nothing else, for this compound: CCSc1nnc(Cn2c(=O)sc3ccccc32)n1-c1ccc(OC)cc1
-4.46

Report growth inhibition, nothing else, for this compound: Cc1ccc2cc(CCNS(=O)(=O)c3ccc(F)cc3)c(=O)[nH]c2c1
-11.5

Report growth inhibition, nothing else, for this compound: Cc1csc2nc(CNS(=O)(=O)c3ccc(-c4ccccc4)cc3)cn12
-8.76
